# Test protocol: Selectivity index, ratio of IC50 for rat L6 cells to IC50 for amastigote stage of Trypanosoma cruzi Tulahuen C4 infected in rat L6 cells
Hi there, I'd appreciate the recorded selectivity ratio for every entry that follows.
Quick one: just the number, no unit, thanks!

Enquiry: Value lookup for selectivity ratio; key = O=C(Cn1ccnc1[N+](=O)[O-])Nc1ccc(Oc2ccc(F)cc2)cc1
Return: 37

Enquiry: Try this molecule too: O=C(Cn1ccnc1[N+](=O)[O-])Nc1ccc(Oc2ccc(Cl)cc2)cc1
Return: 49

Enquiry: Try this molecule too: O=C(Cn1cnc([N+](=O)[O-])n1)NC1CCN(Cc2ccccc2)CC1
Return: 14

Enquiry: Try this molecule too: O=C(Cn1ccnc1[N+](=O)[O-])Nc1ccc(Oc2ccccc2)cc1
Return: 15

Enquiry: Try this molecule too: O=C(Cn1cncn1)Nc1ccc(Oc2ccc(Cl)cc2)cc1
Return: 7.5

Enquiry: Try this molecule too: O=C(Cn1cnc([N+](=O)[O-])n1)Nc1ccc(Oc2ccc(F)cc2)cc1
Return: 1950

Enquiry: Try this molecule too: O=C(Cn1cnc([N+](=O)[O-])n1)Nc1cccc(OCc2ccccc2)c1
Return: 2420

Enquiry: Try this molecule too: O=C(Cn1cnc([N+](=O)[O-])n1)Nc1nccc(-c2ccccc2)n1
Return: 66

Enquiry: Try this molecule too: O=C(Cn1cnc([N+](=O)[O-])n1)Nc1ccc(Oc2ccccc2)cc1
Return: 1420

Enquiry: Try this molecule too: O=C(Cn1cnc([N+](=O)[O-])n1)Nc1ccc(-c2ccc(Cl)cc2)cc1
Return: 2800

Enquiry: Try this molecule too: O=C(Cn1cnc([N+](=O)[O-])n1)Nc1ccc(Oc2ccc(Cl)cc2)cc1
Return: 3620

Enquiry: Try this molecule too: O=C(Cn1cnc([N+](=O)[O-])n1)Nc1ccc(Cc2ccccc2)cc1
Return: 528

---

Hi there, I'd appreciate the recorded selectivity ratio for every entry that follows.
# Test protocol: Selectivity index, ratio of IC50 for rat L6 cells to IC50 for trypomastigote stage of Trypanosoma brucei rhodesiense STIB 900

Enquiry: Value lookup for selectivity ratio; key = O=C(Cn1ccnc1[N+](=O)[O-])Nc1ccc(Oc2ccc(Cl)cc2)cc1
Return: 50

Enquiry: Try this compound too: O=C(Cn1cnc([N+](=O)[O-])n1)Nc1ccc(Oc2ccccc2)cc1
Return: 34

Enquiry: Try this compound too: O=C(Cn1cnc([N+](=O)[O-])n1)Nc1cccc(OCc2ccccc2)c1
Return: 14

Enquiry: Try this compound too: O=C(Cn1cnc([N+](=O)[O-])n1)Nc1ccc(Oc2ccc(F)cc2)cc1
Return: 35

These measurements were taken from ChEMBL document CHEMBL3611981.
